Each recorded value in this set is attributed to patent US20170340735A1.

# tgt: T1, human TIGIT on the cell surface (human, UniProt Q495A1 22-244)
# T1 construct: Expressed on engineered Jurkat cells or naturally on human primary CD8+ T cells (the cells are named under assay); also called Human TIGIT Jurkat; human TIGIT expressing Jurkat cells
# T1 sequence: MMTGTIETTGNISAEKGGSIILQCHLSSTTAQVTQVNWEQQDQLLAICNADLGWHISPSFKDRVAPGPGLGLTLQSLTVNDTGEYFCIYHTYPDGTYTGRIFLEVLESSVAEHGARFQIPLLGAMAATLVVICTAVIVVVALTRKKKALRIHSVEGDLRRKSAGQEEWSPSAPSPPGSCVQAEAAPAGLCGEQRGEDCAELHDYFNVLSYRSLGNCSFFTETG
# protocol_notes: flow cytometry, antibody titrated against labeled PVRL2-Fc binding to human TIGIT Jurkat cells
Quick list: IC50 per entry.
State the answer as a number, implicitly in nM.

// known answers, use as guide
- MAB16-IgG4 (antibody, V domains shown) VH: QVQLVQSGAEVKKPGASVKVSCKASGYTFREYYMHWVRQAPGQGLEWMGIINPSIGLTSYARKFQGRVTMTRDTSTSTVYMELSSLRSEDTAVYYCARGGRTTWIGALDIWGQGTMVTVSS VL: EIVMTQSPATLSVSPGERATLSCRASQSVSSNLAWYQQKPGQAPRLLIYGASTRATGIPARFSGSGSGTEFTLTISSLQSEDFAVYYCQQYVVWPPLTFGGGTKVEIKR: 1.3
- MAB18-IgG4 (antibody, V domains shown) VH: QVQLVQSGAEVKKPGASVKVSCKASGYTFPAYYMHWVRQAPGQGLEWMGIINPSLGLTSYARKFQGRVTMTRDTSTSTVYMELSSLRSEDTAVYYCARGGRTTWIGAFDIWGQGTMVTVSS VL: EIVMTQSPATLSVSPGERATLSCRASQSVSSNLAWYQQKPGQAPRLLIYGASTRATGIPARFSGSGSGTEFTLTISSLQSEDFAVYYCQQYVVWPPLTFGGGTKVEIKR: 1.9
- MAB19-IgG4 (antibody, V domains shown) VH: QVQLVQSGAEVKKPGASVKVSCKASGYTFTSHYMGWVRQAPGQGLEWMGVINPSMGATSYAQKFQGRVTMTRDTSTSTVYMELSSLRSEDTAVYYCARLHVSGSYYPAYLDYWGQGTMVTVSS VL: EIVMTQSPATLSVSPGERATLSCRASQSVSSNLAWYQQKPGQAPRHLIYGASTRATGIPARFSGSGSGTEFTLTISSLQSEDFAVYYCQQYIVFPWTFGGGTKVEIKR: 2
- MAB1-IgG4 (antibody, V domains shown) VH: QLQLQESGPGLVKPSETLSLTCTVSGGSITSSSYYWGWIRQPPGKGLEWIGSIYYSGATFYNPSLKSRVTISVDTSKNQFSLKLSSVTAADTAVYYCARDANYYGSAWAFDPWGQGTLVTVSS VL: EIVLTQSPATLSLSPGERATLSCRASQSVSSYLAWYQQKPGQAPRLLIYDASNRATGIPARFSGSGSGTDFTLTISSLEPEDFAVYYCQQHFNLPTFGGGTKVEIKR: 1.4
- MAB17-IgG4 (antibody, V domains shown) VH: QVQLVQSGAEVKKPGASVKVSCKASGYTFPAYYIHWVRQAPGQGLEWMGIINPSLGLTSYARKFQGRVTMTRDTSTSTVYMELSSLRSEDTAVYYCARGGRTTWIGALDIWGQGTMVTVSS VL: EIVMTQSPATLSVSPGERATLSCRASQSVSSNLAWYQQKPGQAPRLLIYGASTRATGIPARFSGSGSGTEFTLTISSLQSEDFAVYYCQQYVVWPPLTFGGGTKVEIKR: 1.9

## Task Entry under review: MAB20-IgG4 (antibody, V domains shown) VH: QVQLVQSGAEVKKPGASVKVSCKASGYTFTSHYMGWVRQAPGQGLEWVGIINPSMGATSYAQKFQGRVTMTRDTSTSTVYMELSSLRSEDTAVYYCARLHVSGSYYPAYLDYWGQGTMVTVSS VL: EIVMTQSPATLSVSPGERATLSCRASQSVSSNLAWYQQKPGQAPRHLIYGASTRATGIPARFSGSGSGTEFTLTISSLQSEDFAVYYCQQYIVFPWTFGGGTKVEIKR . Reported IC50?
## Result 1.9

## Task Entry under review: MAB14-IgG4 (antibody, V domains shown) VH: QVQLVQSGAEVKKPGASVKVSCKASGYTFPAYYMHWVRQAPGQGLEWMGIINPSLGLTSYAQKFQGRVTMTRDTSTSTVYMELSSLRSEDTAVYYCARGGRTTWIGAFDIWGQGTMVTVSS VL: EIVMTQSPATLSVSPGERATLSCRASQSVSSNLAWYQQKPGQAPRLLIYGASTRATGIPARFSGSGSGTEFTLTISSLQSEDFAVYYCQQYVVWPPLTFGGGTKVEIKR . Reported IC50?
## Result 1.6

## Task Entry under review: MAB4-IgG4 (antibody, V domains shown) VH: QLQLQESGPGLVKPSETLSLTCTVSGGSISSTSHYWGWIRQPPGKGLEWIGSIYYSGSTFYNPSLKSRVTISVDTSKNQFSLKLSSVTAADTAVYYCARDANYYGGAWAFDPWGQGTLVTVSS VL: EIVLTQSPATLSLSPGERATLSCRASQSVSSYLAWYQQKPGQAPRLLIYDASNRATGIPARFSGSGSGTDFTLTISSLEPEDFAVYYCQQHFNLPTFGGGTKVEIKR . Reported IC50?
## Result 1.6
